System: HCT-116 colon
Test: NCI-60 one-dose screen, 48 h
Conditions: 10 µM unless noted
Compounds without any hit were thinned out: in the full panel of roughly 83,000, 20% have a hit. Calls of active or inactive are those of the source. How the source made its calls: active means growth percent below 10; inactive means the rest. Where a SMILES comes first, the peptide text is derived from it. The star is where a group is joined. Trt = c1ccc(C(c2ccccc2)(c2ccccc2)*)cc1; Cbz = O=C(OCc1ccccc1)*
Possible outcomes: active, inactive

Compound: C=C(Cl)C(=NC(C)(C)C)Nc1ccccc1C
Category: inactive

Compound: Cc1ccc(C(=Nc2ccccc2)N=P(c2ccccc2)(c2ccccc2)c2ccccc2)cc1
Category: active

Compound: Cc1ccc2nc(C[n+]3ccc4ccccc4c3)ccc2c1
Category: inactive

Compound: COC(=O)C(CSC(c1ccccc1)(c1ccccc1)c1ccccc1)NC(=O)C(CC(N)=O)NC(=O)OCc1ccccc1 (stereo not drawn) (Cbz-Asn-Cys(Trt)-OMe; configuration not given here)
Category: inactive
